SYSTEM_UNDER_TEST: Potassium voltage-gated channel subfamily KQT member 1 (Homo sapiens)
PROCEDURE_TEXT: inhibitors of human KCNQ1 channel, primary screen, cell-based, thallium flux, high-throughput (AID 2642);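 note: channel opened by potassium depolarization with thallium stimulus after 20 min compound exposure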
EXPERIMENTAL_CONTEXT: CHO-K1 KCNQ1, FluxOR thallium flux fluorescence, at 10 µM; active compounds read high
About 3,900 (1.3%) of roughly 310,000 compounds were called active. What follows is part of a selection rich in actives, with near analogues and random picks from the rest.
ASSAY_ENDPOINT: B-score

Please review the entries below; each comes with its answer.
{"COMPOUND_SMILES": "O=C(NNC(=S)NC(=O)c1cn(-c2ccccc2)nc1-c1ccccc1)c1ccncc1", "REPORTED_VALUE": "6 (active)"}
{"COMPOUND_SMILES": "O=C(CN1C(=O)NC2(CCCCC2)C1=O)NCCc1c[nH]c2ccccc12", "REPORTED_VALUE": "inactive"}
{"COMPOUND_SMILES": "Cc1onc(-c2ccccc2)c1C(=O)NNC(=S)NC(=O)c1ccc(F)cc1", "REPORTED_VALUE": "inactive"}
{"COMPOUND_SMILES": "Cc1cc(/C=C2/SC(=O)N(CC(=O)N3CCCC3)C2=O)ccc1N1CCOCC1", "REPORTED_VALUE": "inactive"}

State recorded B-score for all listed compounds.
1. COc1ccc(-c2nc3ccccc3c(=O)n2CCc2ccc(O)cc2)cc1
2. CCCN1CNC(=S)N(CCc2ccccc2)C1
3. Cc1ccccc1OCC(=O)Nc1ccc(S(=O)(=O)N2CCOCC2)cc1
4. CCc1ccc(-c2cc(C(=O)NCc3ccco3)c3ccccc3n2)s1
5. COc1ccc(-c2nn(-c3ccccc3)cc2C(=O)Nc2nc(CC(C)=O)ns2)cc1
6. COc1ccc(-c2cc(C(F)(F)F)nc(S(C)(=O)=O)n2)cc1OC

Ans.
1: inactive; 2: inactive; 3: inactive; 4: 6 (active); 5: inactive; 6: 7 (active)

----------
SYSTEM_UNDER_TEST: Potassium voltage-gated channel subfamily KQT member 1 (Homo sapiens)
PROCEDURE_TEXT: inhibitors of human KCNQ1 channel, primary screen, cell-based, thallium flux, high-throughput (AID 2642);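 note: channel opened by potassium depolarization with thallium stimulus after 20 min compound exposure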
EXPERIMENTAL_CONTEXT: CHO-K1 KCNQ1, FluxOR thallium flux fluorescence, at 10 µM
The whole screen tested about 310,000 compounds, of which about 3,900 (1.3%) were called active.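 How the source made its calls: active means compounds whose thallium flux B-score, printed positive for inhibition, exceeds three library SD while starting fluorescence stays within three; inactive means the rest.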 This excerpt belongs to a sample that is enriched for actives.
Pick one: active, inactive

{"COMPOUND_SMILES": "O=C(CN1CCN(c2ccccn2)CC1)Nc1ccc(Br)cc1", "CLASS_ASSIGNMENT": "inactive"}
{"COMPOUND_SMILES": "O=C(Nc1nc(-c2ccco2)c(-c2ccco2)s1)c1ccco1", "CLASS_ASSIGNMENT": "inactive"}
{"COMPOUND_SMILES": "COc1ccc(/C=N/n2c(C)cc(C)cc2=O)cc1", "CLASS_ASSIGNMENT": "inactive"}

--- query ---
Qu. Test call, this compound: COc1cccc(CNCCc2c[nH]c3ccccc23)c1OCc1ccccc1F
Ans. active

----------
SYSTEM_UNDER_TEST: Potassium voltage-gated channel subfamily KQT member 1 (Homo sapiens) (UniProt P51787)
Sequence (P51787 whole entry, looked up): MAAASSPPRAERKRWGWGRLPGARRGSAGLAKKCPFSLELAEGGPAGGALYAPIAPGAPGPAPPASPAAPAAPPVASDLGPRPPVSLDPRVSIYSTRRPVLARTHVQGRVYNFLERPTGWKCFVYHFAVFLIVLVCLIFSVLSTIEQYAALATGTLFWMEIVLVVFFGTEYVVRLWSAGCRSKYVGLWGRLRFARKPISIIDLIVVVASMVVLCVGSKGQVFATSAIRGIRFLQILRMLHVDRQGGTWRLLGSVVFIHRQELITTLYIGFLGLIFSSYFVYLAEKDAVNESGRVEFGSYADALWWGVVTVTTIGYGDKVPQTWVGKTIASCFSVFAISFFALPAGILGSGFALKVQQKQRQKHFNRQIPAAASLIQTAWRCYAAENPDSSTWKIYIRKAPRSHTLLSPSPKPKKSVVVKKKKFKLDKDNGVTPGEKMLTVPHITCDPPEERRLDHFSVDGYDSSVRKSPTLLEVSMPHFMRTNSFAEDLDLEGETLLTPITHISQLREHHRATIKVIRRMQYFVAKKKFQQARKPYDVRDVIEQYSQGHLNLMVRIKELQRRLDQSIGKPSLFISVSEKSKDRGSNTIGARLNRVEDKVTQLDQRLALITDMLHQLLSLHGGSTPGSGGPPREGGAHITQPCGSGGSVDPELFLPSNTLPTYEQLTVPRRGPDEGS
PROCEDURE_TEXT: inhibitors of human KCNQ1 channel, primary screen, cell-based, thallium flux, high-throughput (AID 2642);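 note: channel opened by potassium depolarization with thallium stimulus after 20 min compound exposure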
EXPERIMENTAL_CONTEXT: CHO-K1 KCNQ1, FluxOR thallium flux fluorescence, at 10 µM
Hit rate of the full screen: of about 310,000 compounds, about 3,900 (1.3%) were called active.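 The calls were made as follows: active = compounds whose thallium flux B-score, printed positive for inhibition, exceeds three library SD while starting fluorescence stays within three; inactive = the rest.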 Shown is part of a subset that was picked to be rich in actives.
The categories you may choose from are y (active), n (inactive)

These recorded examples may help you get a feel for the data.
{"COMPOUND_SMILES": "Cc1csc(NC(=S)Nc2cccc(Cl)c2)n1", "CLASS_ASSIGNMENT": "n"}
{"COMPOUND_SMILES": "NS(=O)(=O)c1ccc(NC(=S)NC(=O)c2cccc(Br)c2)cc1", "CLASS_ASSIGNMENT": "n"}
{"COMPOUND_SMILES": "CC1(C)CC(N2CCN(C(c3ccccc3)c3ccccc3)CC2)=CC(=[N+]2CCCCC2)C1", "CLASS_ASSIGNMENT": "y"}
{"COMPOUND_SMILES": "COc1ccc(NC(=O)COc2ccc(C(=O)c3ccc(F)cc3)cc2)cc1S(N)(=O)=O", "CLASS_ASSIGNMENT": "n"}
{"COMPOUND_SMILES": "COc1ccc(-c2c(C#Cc3ccccc3)c3ccccc3n2C)cc1", "CLASS_ASSIGNMENT": "n"}
{"COMPOUND_SMILES": "Fc1ccc(/C=N/n2c(COc3ccccc3)n[nH]c2=S)cc1", "CLASS_ASSIGNMENT": "n"}
{"COMPOUND_SMILES": "CCc1ccc(-c2nn(-c3ccccc3)cc2CSC(=N)N)cc1", "CLASS_ASSIGNMENT": "y"}
{"COMPOUND_SMILES": "Cc1ccc(C)c(N2CCN(C(=O)CCCn3c(=O)c4cccn4c4cccnc43)CC2)c1", "CLASS_ASSIGNMENT": "n"}

Qu. What did the test return for C=CCC1(CC=C)CCCN1C(=O)c1cc(COc2ccc(-n3cncn3)cc2)on1 ?
Ans. y

Qu. Entry O=C(NN1CCOCC1)c1cccc(F)c1 : call = ?
Ans. n
